assay.target: T1, Oct6 DNA-binding domain (BD-Oct6) (Mus musculus (B6), UniProt P21952 317-416)
T1 sequence: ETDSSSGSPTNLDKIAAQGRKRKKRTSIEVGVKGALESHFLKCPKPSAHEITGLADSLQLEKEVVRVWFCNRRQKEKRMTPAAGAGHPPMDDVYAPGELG
method.summary: EMSA; 10% glycerol, 20 mM HEPES pH 7.8, 45 mM KCl, 10 mM NaCl, 1 mM EDTA, 1 mM DTT, 0.2 ug/uL BSA, 0.1% NP-40, 50 ng poly-dIdC; 20 ng each GST protein; room temperature 30 min (heterodimers 4 C); 6% PAGE 0.25x TBE
settings: protein: recombinant; tags: GST (N-terminal, pGEX-6P-1); label: 32P-dCTP fill-in of the 5' (dG)5 overhangs of both strands (Methods; control probes are given with GGG)
readout: binding result

binder	readout	recorded.measurement
28 (dsDNA) DNA 1: GGGGGAAAAAAGATTCTAATCTTTTTTGTGGTGGTGGCCCCC DNA 2: GGGGGCCACCACCACAAAAAAGATTAGAATCTTTTTTCCCCC	binding result	no binding
69 (dsDNA) DNA 1: GGGGGACAAGTGATTTGTCCTTATCACATAGCTAGGAAAAGGGAATCCCCC DNA 2: GGGGGATTCCCTTTTCCTAGCTATGTGATAAGGACAAATCACTTGTCCCCC	binding result	binds
61 (dsDNA) DNA 1: GGGGGTAAATTTTTCTAATCCTGACAAATCTCTTCACCCCC DNA 2: GGGGGTGAAGAGATTTGTCAGGATTAGAAAAATTTACCCCC	binding result	binds
46 (dsDNA) DNA 1: GGGGGTTATTTCACAAAATCAACAAATCAAAAAGCCCCC DNA 2: GGGGGCTTTTTGATTTGTTGATTTTGTGAAATAACCCCC	binding result	binds

Now take the following binder into account.
Enquiry: Please give the measured binding result for this binder: 107 (dsDNA) DNA 1: GGGGGACTAGTTTTCTATTACTACAAATCTCAACTCCCCC DNA 2: GGGGGAGTTGAGATTTGTAGTAATAGAAAACTAGTCCCCC
Return: no binding
